# measured on: PARP (Homo sapiens, UniProt P09874)
# Sequence (P09874 whole entry): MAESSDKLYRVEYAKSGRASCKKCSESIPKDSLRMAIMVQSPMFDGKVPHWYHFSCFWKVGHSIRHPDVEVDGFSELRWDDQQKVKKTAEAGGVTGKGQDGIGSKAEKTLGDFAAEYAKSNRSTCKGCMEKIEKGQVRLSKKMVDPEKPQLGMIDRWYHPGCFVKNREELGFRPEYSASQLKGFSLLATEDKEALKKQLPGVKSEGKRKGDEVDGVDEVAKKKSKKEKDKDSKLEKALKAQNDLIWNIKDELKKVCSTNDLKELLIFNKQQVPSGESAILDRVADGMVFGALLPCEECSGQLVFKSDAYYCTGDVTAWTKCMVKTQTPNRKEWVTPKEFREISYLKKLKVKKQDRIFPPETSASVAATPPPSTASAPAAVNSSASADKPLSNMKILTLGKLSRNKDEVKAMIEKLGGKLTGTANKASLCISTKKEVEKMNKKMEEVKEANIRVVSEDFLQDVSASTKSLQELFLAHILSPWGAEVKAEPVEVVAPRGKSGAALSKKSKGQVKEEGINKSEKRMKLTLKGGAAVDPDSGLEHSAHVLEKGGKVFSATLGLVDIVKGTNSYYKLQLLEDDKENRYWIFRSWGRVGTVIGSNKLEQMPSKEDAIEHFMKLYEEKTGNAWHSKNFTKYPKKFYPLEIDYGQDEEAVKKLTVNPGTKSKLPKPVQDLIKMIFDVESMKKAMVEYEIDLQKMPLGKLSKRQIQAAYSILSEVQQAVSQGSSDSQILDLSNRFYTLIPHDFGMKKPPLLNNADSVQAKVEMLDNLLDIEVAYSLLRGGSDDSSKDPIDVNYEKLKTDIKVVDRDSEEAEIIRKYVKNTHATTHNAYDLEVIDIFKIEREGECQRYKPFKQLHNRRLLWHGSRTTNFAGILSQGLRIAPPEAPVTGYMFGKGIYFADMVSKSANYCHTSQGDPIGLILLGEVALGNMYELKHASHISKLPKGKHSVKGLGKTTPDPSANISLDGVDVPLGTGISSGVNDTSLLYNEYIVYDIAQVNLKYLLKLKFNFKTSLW
# assay notes: Inhibitory experiment against PARP activity
# protocol conditions: PARP (Trevigen), [14C]NAD, activated DNA, 25° C., 10 minutes; concentration decreasing enzyme activity to 50%
pIC50: −log10 of the molar value.

compound	pIC50
O=c1[nH]cc(-c2ccc(CN3CCCC3)cc2)c2c(O)cccc12 [Example 32]	7.48
CN(CCCc1ccccc1)Cc1ccc(-c2c[nH]c(=O)c3cccc(O)c23)cc1 [Example 21]	7.33
CN(Cc1ccccc1)Cc1ccc(-c2c[nH]c(=O)c3cccc(O)c23)cc1 [Example 12]	7.27
O=c1[nH]cc(-c2ccc(CN3CC=C(c4ccccc4)CC3)cc2)c2c(O)cccc12 [Example 61]	7.70
CN(Cc1ccc(-c2c[nH]c(=O)c3cccc(O)c23)cc1)CC1CCCCC1 [Example 23]	6.90
CN(CCc1ccccc1)Cc1ccc(-c2c[nH]c(=O)c3cccc(O)c23)cc1 [Example 19]	7.39
